- Tested on: DmEcR-CDEF
- Test: VP16/DmEcR-CDEF wild-type and mutants, 6xEcRE β-gal reporter transactivation in insect L57 cells
- Type: cell-based, Drosophila melanogaster
- Measurement Parameters: 1 μM 20-hydroxyecdysone, VP16/DmEcR-CDEF
// reported Fold increase over WT, 1 μM 20-hydroxyecdysone per item
Endpoint: Fold increase over WT, 1 μM 20-hydroxyecdysone (fold)

>>> quantitative_result("A107P: DmEcR-CDEF LBD substitution mutant, Alanine (A) to Proline (P) (protein, Drosophila melanogaster) LTYNQLAVIYKLIWYQDGYEQPSEEDLRRIMSQPDENESQTDVSFRHITEITILTVQLIVEFAKGLPAFTKIPQEDQITLLKACSSEVMMLRMARRYDHSSDSIFFPNNRSYTRDSYKMAGMADNIEDLLHFCRQMFSMKVDNVEYALLTAIVIFSDRPGLEKAQLVEAIQSYYIDTLRIYILNRHCGDSMSLVFYAKLLSILTELRTLGNQNAEMCFSLKLKNRKLPKFLEEIWDV")
0.09
>>> quantitative_result("C217S: DmEcR-CDEF LBD substitution mutant, Cysteine (C) to Serine (S) (protein, Drosophila melanogaster) LTYNQLAVIYKLIWYQDGYEQPSEEDLRRIMSQPDENESQTDVSFRHITEITILTVQLIVEFAKGLPAFTKIPQEDQITLLKACSSEVMMLRMARRYDHSSDSIFFANNRSYTRDSYKMAGMADNIEDLLHFCRQMFSMKVDNVEYALLTAIVIFSDRPGLEKAQLVEAIQSYYIDTLRIYILNRHCGDSMSLVFYAKLLSILTELRTLGNQNAEMSFSLKLKNRKLPKFLEEIWDV")
0.39
>>> quantitative_result("N213A: DmEcR-CDEF LBD substitution mutant, Asparagine (N) to Alanine (A) (protein, Drosophila melanogaster) LTYNQLAVIYKLIWYQDGYEQPSEEDLRRIMSQPDENESQTDVSFRHITEITILTVQLIVEFAKGLPAFTKIPQEDQITLLKACSSEVMMLRMARRYDHSSDSIFFANNRSYTRDSYKMAGMADNIEDLLHFCRQMFSMKVDNVEYALLTAIVIFSDRPGLEKAQLVEAIQSYYIDTLRIYILNRHCGDSMSLVFYAKLLSILTELRTLGNQAAEMCFSLKLKNRKLPKFLEEIWDV")
0.01
>>> quantitative_result("G121R: DmEcR-CDEF LBD substitution mutant, Glycine (G) to Arginine (R) (protein, Drosophila melanogaster) LTYNQLAVIYKLIWYQDGYEQPSEEDLRRIMSQPDENESQTDVSFRHITEITILTVQLIVEFAKGLPAFTKIPQEDQITLLKACSSEVMMLRMARRYDHSSDSIFFANNRSYTRDSYKMARMADNIEDLLHFCRQMFSMKVDNVEYALLTAIVIFSDRPGLEKAQLVEAIQSYYIDTLRIYILNRHCGDSMSLVFYAKLLSILTELRTLGNQNAEMCFSLKLKNRKLPKFLEEIWDV")
0.5
>>> quantitative_result("G121L: DmEcR-CDEF LBD substitution mutant, Glycine (G) to Leucine (L) (protein, Drosophila melanogaster) LTYNQLAVIYKLIWYQDGYEQPSEEDLRRIMSQPDENESQTDVSFRHITEITILTVQLIVEFAKGLPAFTKIPQEDQITLLKACSSEVMMLRMARRYDHSSDSIFFANNRSYTRDSYKMALMADNIEDLLHFCRQMFSMKVDNVEYALLTAIVIFSDRPGLEKAQLVEAIQSYYIDTLRIYILNRHCGDSMSLVFYAKLLSILTELRTLGNQNAEMCFSLKLKNRKLPKFLEEIWDV")
0.09
